# METHOD: Half life in Sprague-Dawley rat at 5 mg/kg, iv
# Assay type: ADME, organism-based
# Set-up: dose 5 mg/kg, route intravenous
# CONDITION INFO: in vivo
READOUT: half-life (h)
One number for each entry, in h.

half-life recorded for this molecule, CC(C)c1cccc(-n2cc(C(=O)c3ccccc3N)nn2)c1 , is 2.1

* * *

# METHOD: AUC (0 to infinity) in Sprague-Dawley rat at 25 mg/kg, po
# Assay type: ADME, organism-based
# Parameters: time infinity, dose 25 mg/kg, route oral
# CONDITION INFO: plasma
READOUT: AUC(0-inf) (ng·h/mL)
One number for each entry, in ng·h/mL.

// AUC(0-inf) lookup, compound = CC(C)c1cccc(-n2cc(C(=O)c3ccccc3N)nn2)c1 , result: 15100

* * *

# METHOD: Cmax in Sprague-Dawley rat at 25 mg/kg, po
# Format: ADME, organism-based
# Set-up: dose 25 mg/kg, route oral
# CONDITION INFO: in vivo
READOUT: Cmax (ng/mL)
Answers are plain numbers, in ng/mL.

Lab note: CC(C)c1cccc(-n2cc(C(=O)c3ccccc3N)nn2)c1 gave Cmax of 5120

Taken from ChEMBL document CHEMBL2380297.
